assay-system: T1, QIEALVEGKSQIQ (not fully specified)
T1 construct: member of the group m41; the text speaks of glycine substitution, the sheet prints alanine
T1 peptide: QIEALVEGKSQIQ
measurement-protocol: ELISA, immobilized peptide QIEALVEGKSQIQ
No end group written: not given here.
The reader will find reported OD450 absorbance values listed item by item below.
Would you mind answering with just the numeric figure?

Answered cases to consult:
{"columns": ["binder", "OD450 absorbance"],
 "data": [
  ["MM05 (antibody, IgG1, V domains shown) VH: QVQLQQPGAELVRPGASVKLSCEASGYTFTSYWMNWVKQRPGQGLEWIGMIDPSDSETHYNQMFKDKATLTVDKSSSTAYMQLSSLTSEDSAVYYCARYLGGKEGSFDYWGQGTTLTVSS VL: DIVMSQSPSSLAVSAGEKVTMSCKSSQSLLNSRTRKNYLAWYQQKPGQSPKLLIYWASTRESGVPDRFTGSGSGTDFTLTISSVQAEDLAVYYCKQSYSLPWTFGGGTKLEIKR", 0.726],
  ["MM07 (antibody, V domains shown, The VH and VL begin with what look like leader peptides (MDWLW..., MVSSAQ...)) VH: QIQLVQSGPELKKPGETVRISCKASGYTLTTAGMQWVQKIPGKGLKWIGWINTHSGVAEFAEDFKGRFAFSLETSANTAYLQIRNLKNEDTATYFCARLGLLGYWGQGTTLTVSS VL: DILLTQSPAILSVSPGERVSFSCRASQSIGTTIHWYQQRTNGSPRLLIKYASESISGIPSRFSGSGSGTDFTLSINSVESEDIADYYCQQSNSWPWTFGGGTKLEIKR", 0.822],
  ["MM08 (antibody, IgG1, V domains shown) VH: QVQLQQPGAELVRPGASVKLSCKSSDYTFTRYWMNWVKQRPGQGLEWIGMIDPSDSETHHNQMFKDKATLTVDKSSSTAYMQLSSLTSEDSAVYFCARYLGGKEGSFDYWGQGTTLTVSS VL: DIVLTQSPSSLAVSAGERVTMSCKSSQSLFNSRTRKNYLAWYQQKPGQSPKLLLYWASTRESGVPDRFTGSGSGTDFTLTISSVKTEDLAVYYCKQSYELPWTFGGGTKLEMKR", 0.789],
  ["MM02 (antibody, IgG2b, V domains shown) VH: QIQLVQSGPEVKKPGETVRISCKASGYTLTTAGIQWVQKMPGKGLKWIGWINTHSGVPEYAEDFKGRFAFFLETSASTAYLQISNLKNEDTATYFCARLGLLGYWGQGTTLTVSS VL: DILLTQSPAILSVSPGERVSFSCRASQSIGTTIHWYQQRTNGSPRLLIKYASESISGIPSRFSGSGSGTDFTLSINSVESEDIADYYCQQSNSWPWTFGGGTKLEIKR", 0.47]
]}

Note: attention shifts to another entry.
In: Consider the binder shown here: MM14 (antibody, IgG2b, V domains shown) VH: QVQLKESGPGLVAPSQSLSITCTVSGFSLTSYAVSWVRQPPGKGLEWLGIIWGDGSTNYHSALISRLSISKDNSKSQVFLKLNSLQTDDTATYYCAKQERFSDGYYDGFAYWGQGTLVTVSA VL: QIVLTQSPAIMSASPGEKVTITCSASSSVSYMHWFQQKPGTSPKLWIYSTSNLASGVPARFSGSGSGTSYSLTISRMEAEDAATYYCQQRSSYPFTFGSGTKLEIKR What is its recorded OD450 absorbance?
Out: 0.777

Where these numbers come from: patent US20230080534A1
